Test system: RPA194
Test: Western blotting for RPA194 in U2OS cell lysates
Type: cell-based
Details: U2OS cells, 0, 0.1, 1, 10 μM, 3 h (Figure 4)
assay_readout: Degradation of RPA194 by Western blotting

input_smiles	result
CN(C)CCCCNC(=O)c1cccn2c(=O)c3cc4ccccc4cc3nc12	less potent
O=C(NCCN1CCOCC1)c1cccn2c(=O)c3cc4ccccc4cc3nc12	less potent
CN(C)CCNC(=O)c1cccn2c(=O)c3ccccc3nc12	less potent
